Entry source: patent US7795261B2

Target: NK2 (Homo sapiens, UniProt P21452)
Sequence (P21452 1-398): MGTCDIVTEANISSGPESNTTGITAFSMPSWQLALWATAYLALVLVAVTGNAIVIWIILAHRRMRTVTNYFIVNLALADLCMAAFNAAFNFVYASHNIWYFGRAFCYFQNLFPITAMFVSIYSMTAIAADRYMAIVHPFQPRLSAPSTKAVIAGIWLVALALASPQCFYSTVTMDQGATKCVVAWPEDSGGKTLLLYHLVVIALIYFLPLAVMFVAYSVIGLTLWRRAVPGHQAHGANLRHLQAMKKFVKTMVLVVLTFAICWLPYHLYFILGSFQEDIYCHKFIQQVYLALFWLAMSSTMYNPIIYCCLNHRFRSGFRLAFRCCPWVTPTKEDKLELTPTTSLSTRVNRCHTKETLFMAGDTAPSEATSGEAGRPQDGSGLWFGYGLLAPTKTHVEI
Test: Signal transduction (ST), intracellular Ca++ (FLIPR), NK2
Format: cell-based
Details: read-out: pIC50 NK2 (converted)
I'd be grateful if you could share measured IC50 for these entries.
Just the number please, in µM, no unit attached.

Need IC50, item Cn1cccc1C(=O)N1CCC(N2CCN([C@H]3CCN(C(=O)c4cc(C(F)(F)F)cc(C(F)(F)F)c4)[C@H](Cc4ccccc4)C3)CC2)C1 (some centres unmarked)
6.31

Record: O=C(c1ccsc1)N1CCC(N2CCN(C3CCN(C(=O)c4cc(C(F)(F)F)cc(C(F)(F)F)c4)C(Cc4ccccc4)C3)CC2)C1 (single isomer, unassigned) [Compound 39]
3.16

Another molecule to look at: O=C(c1cc(Cl)sc1Cl)N1CCC(N2CCN([C@H]3CCN(C(=O)c4cc(C(F)(F)F)cc(C(F)(F)F)c4)[C@H](Cc4ccccc4)C3)CC2)C1 (some centres unmarked)
6.31

Please do the same for O=C(C1CCOC1)N1CCC(N2CCN(C3CCN(C(=O)c4cc(C(F)(F)F)cc(C(F)(F)F)c4)C(Cc4ccc(Cl)c(Cl)c4)C3)CC2)C1 (centres unmarked) [Compound 172] as well.
0.794

Try this molecule too: O=C(C1CC1)N1CCC(N2CCN(C3CCN(C(=O)c4cc(C(F)(F)F)cc(C(F)(F)F)c4)C(Cc4ccccc4)C3)CC2)C1 (single isomer, unassigned)
5.01

Same thing, different molecule: CC(C)(C)C(=O)N1CCC(N2CCN(C3CCN(C(=O)c4cc(C(F)(F)F)cc(C(F)(F)F)c4)C(Cc4ccc(F)c(F)c4)C3)CC2)C1 (single isomer, unassigned)
2

Same thing, different molecule: O=C(C(NCc1ccccc1)c1ccccc1)N1CCC(N2CCN([C@H]3CCN(C(=O)c4cc(C(F)(F)F)cc(C(F)(F)F)c4)[C@H](Cc4ccccc4)C3)CC2)C1 (some centres unmarked)
3.16

And what about the molecule O=C(C1CC1)N1CCC(N2CCN(C3CCN(C(=O)c4cc(C(F)(F)F)cc(C(F)(F)F)c4)C(Cc4ccc(F)c(F)c4)C3)CC2)C1 (single isomer, unassigned) ?
1
